# TGT: Recombinant human his-tagged IGF R extracellular domain protein (human) (UniProt P08069)
# ASSAY TEXT: SPR, Ab captured via anti-huIgG Fc, dissociation at pH 6
QUANTITY MEASURED: Kd (nM)
Report as a plain number; the unit nM is understood.

Examples with answers:
VRDN-02002 (antibody, V domains shown) VH: QVQLQESGPGLVKPSETLSLTCTVSGHSITGGYLWNWIRQPPGKGLEWIGYISYDGTNNYKPSLKDRVTISRDTSKNQFSLKLSSVTAADTAVYYCARYGRVFFDYWGQGTLVTVSS VL: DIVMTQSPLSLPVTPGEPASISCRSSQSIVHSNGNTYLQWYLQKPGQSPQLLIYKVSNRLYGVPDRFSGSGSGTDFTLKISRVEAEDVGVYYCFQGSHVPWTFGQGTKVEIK
1.11
VRDN-02069 (antibody, V domains shown) VH: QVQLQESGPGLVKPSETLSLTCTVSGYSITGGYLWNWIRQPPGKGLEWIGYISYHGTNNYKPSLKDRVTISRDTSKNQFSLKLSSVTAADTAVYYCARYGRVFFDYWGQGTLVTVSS VL: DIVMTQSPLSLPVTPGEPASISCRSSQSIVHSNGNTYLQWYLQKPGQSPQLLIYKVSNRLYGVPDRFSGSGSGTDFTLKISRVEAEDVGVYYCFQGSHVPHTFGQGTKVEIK
0.325
VRDN-02040 (antibody, V domains shown) VH: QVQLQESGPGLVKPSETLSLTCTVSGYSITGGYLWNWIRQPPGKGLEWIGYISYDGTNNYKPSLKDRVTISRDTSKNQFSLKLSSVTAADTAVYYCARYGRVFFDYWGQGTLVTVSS VL: DIVMTQSPLSLPVTPGEPASISCRSSQSIVHSNGNHYLQWYLQKPGQSPQLLIYKVSNRLYGVPDRFSGSGSGTDFTLKISRVEAEDVGVYYCFQGSHVPWTFGQGTKVEIK
1.04

Any idea what its Kd is? The binder is VRDN-02076 (antibody, V domains shown) VH: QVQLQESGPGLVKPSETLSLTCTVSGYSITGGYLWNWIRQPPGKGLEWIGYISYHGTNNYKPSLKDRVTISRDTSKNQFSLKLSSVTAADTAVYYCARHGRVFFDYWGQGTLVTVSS VL: DIVMTQSPLSLPVTPGEPASISCRSHQSIVHSNGNTYLQWYLQKPGQSPQLLIYKVSNRLYGVPDRFSGSGSGTDFTLKISRVEAEDVGVYYCFQGSHVPHTFGQGTKVEIK 0.178

Data provenance: patent US20240360227A1
